Listed compounds paired with reported Emax
- assayed system: F508delCFTR (Homo sapiens, UniProt P13569, DEL508-508)
- Construct: expressed in transfected cells; host or cells: CFBE41o- human lung-derived epithelial cells (CFBE4lo-F508delCFTR-HRP), doxycycline-inducible
- Sequence (P13569 with tags, fused parts or gaps DEL508-508): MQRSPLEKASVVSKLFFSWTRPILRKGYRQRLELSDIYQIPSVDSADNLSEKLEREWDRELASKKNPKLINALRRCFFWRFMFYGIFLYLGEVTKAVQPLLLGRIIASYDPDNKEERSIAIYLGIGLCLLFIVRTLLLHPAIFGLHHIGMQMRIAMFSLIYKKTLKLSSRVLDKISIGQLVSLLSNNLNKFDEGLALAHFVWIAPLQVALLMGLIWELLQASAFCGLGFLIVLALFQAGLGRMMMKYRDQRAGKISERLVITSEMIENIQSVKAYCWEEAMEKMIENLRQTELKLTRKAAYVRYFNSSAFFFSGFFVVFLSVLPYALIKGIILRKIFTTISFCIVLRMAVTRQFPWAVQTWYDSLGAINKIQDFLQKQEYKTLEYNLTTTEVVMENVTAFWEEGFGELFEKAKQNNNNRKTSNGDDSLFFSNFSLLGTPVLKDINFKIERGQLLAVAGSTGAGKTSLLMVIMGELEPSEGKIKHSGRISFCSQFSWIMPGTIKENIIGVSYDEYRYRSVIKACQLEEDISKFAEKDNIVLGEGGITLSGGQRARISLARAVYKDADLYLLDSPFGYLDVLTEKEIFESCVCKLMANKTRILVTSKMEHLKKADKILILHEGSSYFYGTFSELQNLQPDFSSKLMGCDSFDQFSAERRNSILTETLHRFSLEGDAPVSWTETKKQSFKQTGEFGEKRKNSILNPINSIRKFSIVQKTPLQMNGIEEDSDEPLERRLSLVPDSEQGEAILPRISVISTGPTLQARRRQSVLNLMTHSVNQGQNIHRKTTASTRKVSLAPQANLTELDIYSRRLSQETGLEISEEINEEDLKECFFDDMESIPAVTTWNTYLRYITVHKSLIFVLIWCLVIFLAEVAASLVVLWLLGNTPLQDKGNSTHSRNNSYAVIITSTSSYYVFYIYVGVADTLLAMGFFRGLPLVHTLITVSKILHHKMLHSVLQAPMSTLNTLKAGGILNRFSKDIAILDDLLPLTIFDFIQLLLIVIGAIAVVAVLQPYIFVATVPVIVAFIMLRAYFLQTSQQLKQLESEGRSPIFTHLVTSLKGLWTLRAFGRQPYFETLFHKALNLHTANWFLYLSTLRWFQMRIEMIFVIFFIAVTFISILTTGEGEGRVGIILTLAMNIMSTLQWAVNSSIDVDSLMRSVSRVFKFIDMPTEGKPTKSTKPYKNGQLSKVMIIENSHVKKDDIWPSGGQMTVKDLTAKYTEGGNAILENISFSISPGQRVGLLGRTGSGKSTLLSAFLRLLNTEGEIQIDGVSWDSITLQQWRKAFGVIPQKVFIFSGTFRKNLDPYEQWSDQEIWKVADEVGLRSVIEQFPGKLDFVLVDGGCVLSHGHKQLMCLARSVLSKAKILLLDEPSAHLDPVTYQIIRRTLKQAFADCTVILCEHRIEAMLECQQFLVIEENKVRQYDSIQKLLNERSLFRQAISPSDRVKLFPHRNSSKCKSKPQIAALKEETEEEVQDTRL
- assay comment: Cell Surface Expression-Horse Radish Peroxidase (CSE-HRP) Assay;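 on Maximum % activity (without co-corrector): percent of the 2 µM on-plate positive control corrector response above DMSO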
- Assay type: cell-based
- cond: without co-corrector; maximum at any tested concentration, normalized to on-plate positive control; read-out: Maximum % activity (without co-corrector)

Query: Name the recorded Emax for `COc1ncc(C2CCC2)cc1CN[C@H]1[C@H](C(C)(C)C)[C@@H](C(=O)O)N(C(=O)OC(C)C)[C@H]1c1cccnc1OC(C)C` .
Reply: > 200%

Query: Consider the compound shown here: `COc1ncc(CC2CCCCC2)cc1CN[C@H]1[C@H](C(C)(C)C)[C@@H](C(=O)O)N(C(=O)C2CCCCC2)[C@H]1c1ccccc1` What is its recorded Emax?
Reply: 100 to 200%

Query: Consider the compound shown here: COc1ccc(C(C)(C)C)cc1CN[C@H]1[C@H](C(C)(C)C)[C@@H](C(=O)O)N(C(=O)C(C)n2cc(Cl)cn2)[C@H]1c1ccccc1 (some centres unmarked) What is its recorded Emax?
Reply: 100 to 200%

Query: Reported Emax for `COc1ccc(C(C)(C)C)cc1CN[C@H]1[C@H](C(C)(C)C)[C@@H](C(=O)O)N(C(=O)C2CCCCC2)[C@H]1c1ccccc1C(C)C` : what is it?
Reply: > 200%

Query: Name the reported Emax value associated with the compound `CC(C)(C)[C@H]1[C@H](Nc2cccc(C(F)(F)F)c2)[C@H](c2ccccc2)N(C(=O)C2CCCCC2)[C@@H]1C(=O)O`
Reply: < 100%

Query: Data request, read-out Emax, for `COc1ncc(C(F)(F)F)cc1CN[C@H]1[C@H](C(C)(C)C)[C@@H](C(=O)O)N(C(=O)[C@@H]2CCC[C@@H](OC)C2)[C@H]1c1ccccc1`
Reply: > 200%

Query: Entry under review: `COc1ccc(C23CC(C2)C3)cc1CN[C@H]1[C@H](C(C)(C)C)[C@@H](C(=O)O)N(C(=O)[C@H]2CCCCO2)[C@H]1c1cccnc1N(C)C` . Reported Emax?
Reply: 100 to 200%

Query: Which value of Emax has been reported for `COc1ncc(C2CCCC2)cc1CN[C@H]1[C@H](C(C)(C)C)[C@@H](C(=O)O)N(C(=O)C2CCCCC2)[C@H]1c1ccccc1` in the records?
Reply: > 200%

====

- assayed system: F508delCFTR (Homo sapiens, UniProt P13569, DEL508-508)
- Construct: expressed in transfected cells; host or cells: CFBE41o- human lung-derived epithelial cells (CFBE4lo-F508delCFTR-HRP), doxycycline-inducible
- assay comment: Cell Surface Expression-Horse Radish Peroxidase (CSE-HRP) Assay
- Assay type: cell-based
- cond: test compound without co-corrector; read-out: EC50 (without co-corrector)
pEC50: −log10 of the molar value.
measured property: pEC50

Reference set (2 entries):
{"columns": ["chemical smiles", "pEC50"],
 "data": [
  ["COc1nc(C(C)(C)C)ccc1CN[C@H]1[C@H](C23CC(C2)C3)[C@@H](C(=O)O)N(C(=O)OC(C)C)[C@H]1c1ccccc1", "5.00 to 6.00"],
  ["COc1ncc(C2CCC2)cc1CN(C)[C@H]1[C@H](C(C)(C)C)[C@@H](C(=O)O)N(C(=O)[C@@H]2CCCCO2)[C@H]1c1ccccc1C(C)C", "> 6.00"]
]}

Next molecule, please.
Query: Item `COc1ncc(C(F)(F)F)cc1CN[C@H]1[C@H](C23CC(C2)C3)[C@@H](C(=O)O)N(C(=O)C2CCCCC2)[C@H]1c1ccccc1` has what recorded pEC50?
Reply: > 6.00

====

- assayed system: F508delCFTR (Homo sapiens, UniProt P13569, DEL508-508)
- Construct: expressed in transfected cells; host or cells: CFBE41o- human lung-derived epithelial cells (CFBE4lo-F508delCFTR-HRP), doxycycline-inducible
- assay comment: Cell Surface Expression-Horse Radish Peroxidase (CSE-HRP) Assay;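 on Maximum % activity (with co-corrector): co-corrector and positive control are both the same reference corrector at 2 µM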
- Type: cell-based
- cond: with co-corrector (2 μM); maximum at any tested concentration, normalized to on-plate positive control
measured property: Maximum % activity (with co-corrector)

{"columns": ["molecule", "assayed system", "measured property", "value measured"],
 "data": [
  ["COc1ccc(C(F)(F)F)cc1CN[C@@H]1[C@@H](C(C)(C)C)[C@H](C(=O)O)N(C(=O)C(C)(C)OC)[C@@H]1c1ccccc1 (racemic)", "F508delCFTR (Homo sapiens, UniProt P13569, DEL508-508)", "Maximum % activity (with co-corrector)", "++ (≥150 and <350)"],
  ["COc1cccc([C@H]2[C@@H](Nc3cc(C(F)(F)F)cc(C)n3)[C@H](C(C)(C)C)[C@@H](C(=O)O)N2C(=O)C2CCCCC2)n1 (racemic)", "F508delCFTR (Homo sapiens, UniProt P13569, DEL508-508)", "Maximum % activity (with co-corrector)", "++ (≥150 and <350)"],
  ["COc1ncc(Cl)cc1CN[C@@H]1[C@@H](C(C)(C)C)[C@H](C(=O)O)N(C(=O)C2CCCCC2)[C@@H]1c1ccccc1 (racemic)", "F508delCFTR (Homo sapiens, UniProt P13569, DEL508-508)", "Maximum % activity (with co-corrector)", "+++ (≥350)"],
  ["COc1ccc(C(F)(F)F)cc1CN[C@H]1[C@H](C(C)(C)C)[C@@H](C(=O)O)N(C(=O)C2CCCCC2)[C@H]1c1cccnc1N(C)C", "F508delCFTR (Homo sapiens, UniProt P13569, DEL508-508)", "Maximum % activity (with co-corrector)", "+++ (≥350)"]
]}

Query: Entry COc1ccc(C(C)(C)C)cc1CN[C@H]1[C@H](C(C)(C)C)[C@@H](C(=O)O)N(C(=O)C(C)n2cc(Cl)cn2)[C@H]1c1ccccc1 (stereo partly drawn) , system F508delCFTR (Homo sapiens, UniProt P13569, DEL508-508): what Maximum % activity (with co-corrector) was measured?
Reply: +++ (≥350)

Query: Form entry - test system: F508delCFTR (Homo sapiens, UniProt P13569, DEL508-508); read-out: Maximum % activity (with co-corrector); molecule: `COc1ccc(C(C)(C)C)cc1CN[C@H]1[C@H](C(C)(C)C)[C@@H](C(=O)O)N(C(=O)Oc2ccccc2)[C@H]1c1ccccc1`
Reply: +++ (≥350)

====

- assayed system: F508delCFTR (Homo sapiens, UniProt P13569, DEL508-508)
- Construct: expressed in transfected cells; host or cells: CFBE41o- human lung-derived epithelial cells (CFBE4lo-F508delCFTR-HRP), doxycycline-inducible
- assay comment: Cell Surface Expression-Horse Radish Peroxidase (CSE-HRP) Assay;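 on Maximum % activity (with co-corrector): co-corrector and positive control are both the same reference corrector at 2 µM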
- Assay type: cell-based
- cond: CSE-HRP; with co-corrector (2 μM); maximum at any tested concentration, normalized to on-plate positive control
measured property: Maximum % activity (with co-corrector)

{"columns": ["molecule", "assayed system", "measured property", "value measured"],
 "data": [
  ["COc1ccc(C(F)(F)F)cc1CN[C@H]1[C@H](C(C)(C)C)[C@@H](C(=O)O)N(C(=O)C2CCc3ccccc3O2)[C@H]1c1ccccc1 (stereo partly drawn) [II-163]", "F508delCFTR (Homo sapiens, UniProt P13569, DEL508-508)", "Maximum % activity (with co-corrector)", "+++ (≥350)"],
  ["CC(C)(C)[C@H]1[C@H](NCc2ccc(Cl)cc2Cl)[C@H](c2ccccc2)N(C(=O)C2CCCCC2)[C@@H]1C(=O)O [II-113]", "F508delCFTR (Homo sapiens, UniProt P13569, DEL508-508)", "Maximum % activity (with co-corrector)", "+++ (≥350)"],
  ["Cc1cc(C(F)(F)F)cc(N[C@@H]2[C@@H](C)[C@H](C(=O)O)N(C(=O)N(C(C)C)C(C)C)[C@@H]2c2ccccc2)n1 [II-11]", "F508delCFTR (Homo sapiens, UniProt P13569, DEL508-508)", "Maximum % activity (with co-corrector)", "+++ (≥350)"]
]}

====

- assayed system: F508delCFTR (Homo sapiens, UniProt P13569, DEL508-508)
- Construct: expressed in transfected cells; host or cells: CFBE41o- human lung-derived epithelial cells (CFBE4lo-F508delCFTR-HRP), doxycycline-inducible
- assay comment: Cell Surface Expression-Horse Radish Peroxidase (CSE-HRP) Assay;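 on Maximum % activity (with co-corrector): co-corrector and positive control are both the same reference corrector at 2 µM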
- Assay type: cell-based
- cond: with co-corrector (2 μM of 3-[(2R,4R)-4-({[1-(2,2-difluoro-1,3-benzodioxol-5-yl)cyclopropyl]carbonyl}amino)-7-methoxy-3,4-dihydro-2H-chromen-2-yl]benzoic acid); maximum at any tested concentration, normalized to on-plate positive control
measured property: Maximum % activity (with co-corrector)

{"columns": ["compound", "Maximum % activity (with co-corrector)"],
 "data": [
  ["COc1ncc(-c2ccc(C)cc2)cc1CN[C@H]1[C@H](C(C)(C)C)[C@@H](C(=O)O)N(C(=O)C2CCCCC2)[C@H]1c1ccccc1", "+++ (≥350)"],
  ["COc1cc(C(F)(F)F)ccc1CN[C@@H]1[C@@H](C(C)(C)C)[C@H](C(=O)O)N(C(=O)C2CCCCC2)[C@@H]1c1ccccc1OC (stereo in doubt)", "+++ (≥350)"],
  ["COc1ccc(C(C)(C)C)cc1CN[C@H]1[C@H](C(C)(C)C)[C@@H](C(=O)O)N(C(=O)CC(C)(O)C(C)C)[C@H]1c1ccccc1 (stereo partly drawn)", "+++ (≥350)"],
  ["COc1ccc(C(F)(F)F)cc1CN[C@@H]1[C@@H](C(C)(C)C)[C@H](C(=O)O)N(C(=O)C2C3COCC32)[C@@H]1c1ccccc1N(C)C (mixture of isomers)", "+++ (≥350)"],
  ["CC(C)(C)[C@@H]1[C@@H](Nc2cc(Cl)ccn2)[C@@H](c2ccccc2)N(C(=O)C2CCCCC2)[C@H]1C(=O)O (racemic)", "++ (≥150 and <350)"],
  ["COc1ccc(C(C)(C)C)cc1CN[C@H]1[C@H](C(C)(C)OC)[C@@H](C(=O)O)N(C(=O)OC(C)C)[C@H]1c1ccccc1", "+++ (≥350)"],
  ["Cc1cc(C(F)(F)F)cc(N[C@@H]2[C@@H](C(C)(C)C)[C@H](C(=O)NS(=O)(=O)C(C)(C)C)N(C(=O)C3CCCCC3)[C@@H]2c2ccccc2)n1 (racemic)", "++ (≥150 and <350)"],
  ["COc1cc(C(F)(F)F)ccc1CN[C@H]1[C@H](C(C)(C)C)[C@@H](C(=O)O)N(C(=O)OC(C)C)[C@H]1c1cccnc1N(C)C", "+++ (≥350)"]
]}

// next entry
Query: Which Maximum % activity (with co-corrector) is listed for `COc1cc2ccccc2cc1CN[C@@H]1[C@H](C(C)(C)C)[C@@H](C(=O)O)N(C(=O)OC(C)C)[C@H]1c1ccccc1` ?
Reply: +++ (≥350)
